- Assay text: Thermal stability of cysteine-NEM conjugates by DSC
- Type: physicochemical
- Assay setup: DSC 25-100 °C, 1 °C per minute
Experimental readout: First Scan Tm (°C)
Answers are plain numbers, in °C.

Some molecules with recorded First Scan Tm:
| Molecule | Unit abbreviation | First Scan Tm |
| --- | --- | --- |
| T93C: cysteine variant of P54AR4-83v2 (SEQ ID NOS: 216 and 254); NEM and VC-MMAF conjugates (conjugate, NEM or vcMMAF conjugate; EGFR binding FN3 domain, NEM and VC-MMAF conjugates) MLPAPKNLVVSEVTEDSARLSWDDPWAFYESFLIQYQESEKVGEAIVLTVPGSERSYDLTGLKPGTEYTVSIYGVHNVYKDTNMRGLPLSAIFCT | °C | 69 |
| S16C: cysteine variant of P54AR4-83v2 (SEQ ID NOS: 194 and 232); NEM and VC-MMAF conjugates (conjugate, NEM or vcMMAF conjugate; EGFR binding FN3 domain, NEM and VC-MMAF conjugates) MLPAPKNLVVSEVTEDCARLSWDDPWAFYESFLIQYQESEKVGEAIVLTVPGSERSYDLTGLKPGTEYTVSIYGVHNVYKDTNMRGLPLSAIFTT | °C | 68 |

Lab note: next molecule to report on.
Memo: R18C (conjugate, left off: small tags and cut ends) LPAPKNLVVSEVTEDSACLSWDDPWAFYESFLIQYQESEKVGEAIVLTVPGSERSYDLTGLKPGTEYTVSIYGVHNVYKDTNMRGLPLSAIFTT , reported First Scan Tm: 62

The measurements presented in this section are drawn from patent US11702475B2.
